B1: UBE2R2 (parent)
chain: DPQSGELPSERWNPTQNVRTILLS

# Variants of: B1
# PROTOCOL: protein stability index of a GFP-peptide fusion (GPS, HEK-293T) (PSI 1-6); higher = more stable;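 note: lentivirally expressed fusions sorted by FACS into six bins by GFP to DsRed ratio, PSI derived from sequencing read proportions per bin multiplied by bin number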
# APPLIED CONDITIONS: c terminus: a fixed tail appended
REPORTED METRIC: protein stability index
Output spec: single numeric token, no unit.

Input line: Entry under review: T20N . Reported protein stability index?
Output line: 3.71

Input line: Then what about the variant R19F ?
Output line: 2.6

Input line: Then what about the variant V18D ?
Output line: 3.83

Input line: Then what about the variant Q3Y ?
Output line: 2.42

Input line: Then what about the variant R19H ?
Output line: 3.43

Input line: Then what about the variant R11A ?
Output line: 3.77

Input line: Then what about the variant T15D ?
Output line: 4.15

Input line: Then what about the variant S4C ?
Output line: 3.61

Input line: Then what about the variant R11I ?
Output line: 2.77

Input line: Then what about the variant G5P ?
Output line: 2.66

Input line: Then what about the variant E6C ?
Output line: 3.02

Input line: Then what about the variant Q16H ?
Output line: 3.44

Input line: Then what about the variant D1N ?
Output line: 3.09

Input line: Then what about the variant S9P ?
Output line: 3.43

Input line: Then what about the variant I21R ?
Output line: 4.52

Input line: Then what about the variant P14H ?
Output line: 2.98

Input line: Then what about the variant S4Q ?
Output line: 3.68

Input line: Then what about the variant P14W ?
Output line: 3.12

Input line: Then what about the variant L23D ?
Output line: 4.91

Input line: Then what about the variant D1V ?
Output line: 2.35

Input line: Then what about the variant P8C ?
Output line: 4.2

Input line: Then what about the variant G5V ?
Output line: 3.27

Input line: Then what about the variant D1R ?
Output line: 3.17

Input line: Then what about the variant S9Q ?
Output line: 3.35

Input line: Then what about the variant Q3C ?
Output line: 3.81

Input line: Then what about the variant L22D ?
Output line: 4.43

Input line: Then what about the variant E10W ?
Output line: 2.39

Input line: Then what about the variant S24Y ?
Output line: 2.04

Input line: Then what about the variant L22S ?
Output line: 3.88

Input line: Then what about the variant D1E ?
Output line: 3.31

Input line: Then what about the variant L23S ?
Output line: 4.08

Input line: Then what about the variant Q16F ?
Output line: 2.5

Input line: Then what about the variant T15W ?
Output line: 2.13

Input line: Then what about the variant N17D ?
Output line: 3.99

Input line: Then what about the variant P8F ?
Output line: 3.27

Input line: Then what about the variant L23V ?
Output line: 3.34

Input line: Then what about the variant I21H ?
Output line: 4.49

Input line: Then what about the variant W12S ?
Output line: 4.67

Input line: Then what about the variant E10L ?
Output line: 2.98

Input line: Then what about the variant R19V ?
Output line: 2.28

Input line: Then what about the variant G5Y ?
Output line: 3.17

Input line: Then what about the variant Q16R ?
Output line: 3.81

Input line: Then what about the variant I21N ?
Output line: 4.6

Input line: Then what about the variant S24T ?
Output line: 3.14

Input line: Then what about the variant V18H ?
Output line: 4

Input line: Then what about the variant N17P ?
Output line: 4.18
